- protocol-details: solvent given as SMILES
- condition-set: in CCO
In this section we review reported absorption maximum values for a set of molecules.
outcome-measure: absorption maximum (nm)

> print(dat)
                            compound.smiles  numeric.value
1             c1ccc(-c2csc(-c3ccncc3)n2)cc1            325
2  CCC1=C(C)C2=C(C)c3cc(I)c(I)n3[B-](F)(F)[N+]2=C1C            520
3                c1cc2ccc3cccc4ccc(c1)c2c34            334
4  CCN(CC)c1ccc2cc(-c3nc4ccccc4s3)c(=O)oc2c1            460
5  CCN(CC)c1ccc2cc(C#N)/c(=N\C(=O)c3ccco3)oc2c1            424
6  Cc1ccc(C(=O)OCc2c(C)c(=O)n3c(=O)c(C)c(C)n23)cc1            376
